Tested on: HT29 colon
Measurement Notes: NCI-60 one-dose screen, 48 h (100 = growth as untreated, 0 = no growth, -100 = all killed)
Condition Notes: 10 µM unless noted
Compounds without any hit were thinned out: in the full panel of roughly 83,000, 20% have a hit. Calls of active or inactive are those of the source. The calls were made as follows: active = growth percent below 10; inactive = the rest.

Smiles Text	Assayed System	growth
COc1ccc(S(=O)(=O)c2ccc(C(N)=O)cc2)cc1NC(=O)c1[nH]c(C)c2c1CCCCC2=O	HT29 colon	32.6% (inactive)
O=c1nc(NO)[nH]c(=O)n1Cc1ccc(F)cc1	HT29 colon	105% (inactive)
COc1ccc(NS(=O)(=O)c2ccc(-c3cnc(C4CC4)o3)cc2)cc1	HT29 colon	19% (inactive)
O=C(CCc1nnc2sc(-c3ccccc3)nn12)c1nc2ccccc2[nH]1	HT29 colon	62.1% (inactive)
Cc1ccc(-c2nnc(COc3ccc(-c4nnc(N)s4)cc3)o2)cc1	HT29 colon	81.5% (inactive)
